# measurementTarget: Kv7.1/KCNE1 (Homo sapiens, UniProt P51787)
# Construct: cRNA encoding Kv7.1 (UniProt: P51787), KCNE1 (UniProt: P15382.1); expressed in transfected cells; host or cells: Xenopus laevis oocytes (cRNA injection, Kv7.1:KCNE1 3:1 by weight)
# testDetails: Two-electrode voltage clamp of Kv7.1/KCNE1 expressed in Xenopus oocytes
# Type: cell-based
# Parameters: unit of the concentration uncertain
# studyConditions: 0.2 μM
readoutLabel: Fitted slope factor of conductance vs voltage relationship (mV)

compoundStructureString | measurementUnits | recordedNumber
CCCCC/C=C\C/C=C\CC/C=C\CCCC(=O)NCC(=O)O | mV | 17.9
CCCCC/C=C\C/C=C\CCCCCCCC(=O)NCCS(=O)(=O)O | mV | 17.7
CCCCC/C=C\C/C=C\C/C=C\C/C=C\CCCC(=O)NCCS(=O)(=O)O | mV | 16.9
CCCCC/C=C\C/C=C\CCCCCCCC(=O)NCC(=O)O | mV | 18.2
CC/C=C\C/C=C\C/C=C\C/C=C\C/C=C\C/C=C\CCC(=O)NCC(=O)O | mV | 16.5
CCCCC/C=C\C/C=C\CC/C=C\CCCC(=O)NCCS(=O)(=O)O | mV | 17.9
CC/C=C\C/C=C\C/C=C\C/C=C\C/C=C\C/C=C\CCC(=O)NCCS(=O)(=O)O | mV | 18.7
